- measurement_notes: APR_HepG2_MicrotubuleCSK_72hr: Apredica 72-hour HepG2 Assay for Microtubule CSK Stabilty (AID 2282919)
- measurement_setup: HepG2 microtubule cytoskeleton, high-content imaging, actives raise or lower the signal
The source made the active and inactive calls. How the source made its calls: active means hit-call score of the fitted dose curve at least 0.9, where 1 is the maximum; inactive means score below 0.9.
measure_name: AC50

smiles_string	reported_measurement
COc1nc(C)nc(NC(=O)NS(=O)(=O)c2ccccc2CCC(F)(F)F)n1	inactive
CC(C)Oc1cc(-n2nc(C(C)(C)C)oc2=O)c(Cl)cc1Cl	52.6 µM (active)
COP(=S)(OC)Oc1nc(Cl)c(Cl)cc1Cl	inactive
COc1nc(C)nc(NC(=O)NS(=O)(=O)c2ccccc2Cl)n1	inactive
